Record set of EC50 for target or system Estrogen receptor beta (Homo sapiens).
// note: answer is a bare numeric in nM

C[C@]12CC[C@H]3[C@@H](CC[C@H]4[C@H]5CCC[C@]43CC[C@@H]5O)[C@@H]1CC[C@@H]2O : 219
C[C@]12CC[C@H]3[C@@H](CC=C4C[C@@H]5CC[C@@]43CCO5)[C@@H]1CC[C@@H]2O : 440

For `C[C@]12CC[C@H]3[C@@H](CC=C4[C@H]5CC[C@]43CC[C@H]5O)[C@@H]1CC[C@@H]2O` , what is its reported EC50?
198

For `C[C@]12CC[C@H]3[C@@H](CC=C4[C@H]5CC[C@]43CC[C@@H]5O)[C@@H]1CC[C@@H]2O` , what is its reported EC50?
28

For `C=C[C@]12CC[C@H](O)CC1=CC[C@H]1[C@@H]3CC[C@H](O)[C@@]3(C)CC[C@@H]12` , what is its reported EC50?
4

----------
target: Estrogen receptor beta (Homo sapiens)
Sequence (Q92731 whole entry): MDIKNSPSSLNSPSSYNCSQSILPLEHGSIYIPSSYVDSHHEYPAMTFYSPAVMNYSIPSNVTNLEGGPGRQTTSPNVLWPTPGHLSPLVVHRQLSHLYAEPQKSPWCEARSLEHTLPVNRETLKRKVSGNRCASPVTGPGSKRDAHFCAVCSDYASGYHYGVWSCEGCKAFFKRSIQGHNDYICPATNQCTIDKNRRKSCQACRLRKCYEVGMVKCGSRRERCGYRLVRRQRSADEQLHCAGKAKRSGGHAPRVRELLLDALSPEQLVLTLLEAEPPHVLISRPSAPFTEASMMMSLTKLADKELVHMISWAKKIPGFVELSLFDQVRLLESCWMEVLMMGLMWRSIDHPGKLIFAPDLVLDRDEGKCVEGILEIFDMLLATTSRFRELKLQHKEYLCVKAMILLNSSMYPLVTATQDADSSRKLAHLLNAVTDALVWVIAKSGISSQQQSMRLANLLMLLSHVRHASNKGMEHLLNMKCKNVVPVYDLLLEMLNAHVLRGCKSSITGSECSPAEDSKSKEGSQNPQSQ
In this section, each of the compounds is paired with its reported EC50.
// note: answer is a bare numeric in nM

C[C@]12CC[C@H]3[C@@H](CC=C4[C@H]5CC[C@]43CCC5=O)[C@@H]1CC[C@@H]2O : 86

State its EC50 on Estrogen receptor beta (Homo sapiens): `C[C@]12CC[C@H]3[C@@H](CC=C4[C@H]5CC=C[C@]43CC[C@@H]5O)[C@@H]1CC[C@@H]2O`
132

State its EC50 on Estrogen receptor beta (Homo sapiens): `C/C=C\[C@]12CC[C@H](O)CC1=CC[C@H]1[C@@H]3CC[C@H](O)[C@@]3(C)CC[C@@H]12`
21

----------
Record set of IC50 for target or system Estrogen receptor beta (Homo sapiens, UniProt Q92731).
// note: answer is a bare numeric in µM

For `CC[C@]12CC[C@H](O)CC1=CC[C@@H]1[C@@H]2CC[C@]2(C)[C@@H](O)CC[C@@H]12` , what is its reported IC50?
0.016

For `C[C@]12CC[C@H]3[C@@H](CC=C4[C@H]5CC=C[C@]43CC[C@@H]5O)[C@@H]1CC[C@@H]2O` , what is its reported IC50?
0.157

For `C/C=C\[C@]12CC[C@H](O)CC1=CC[C@H]1[C@@H]3CC[C@H](O)[C@@]3(C)CC[C@@H]12` , what is its reported IC50?
0.016

For `C[C@]12CC[C@H]3[C@@H](CC=C4[C@H]5CC[C@]43CC[C@@H]5O)[C@@H]1CC[C@@H]2O` , what is its reported IC50?
0.05

For `C[C@]12CC[C@H]3[C@@H](CC=C4[C@H]5CC[C@]43CCC5=O)[C@@H]1CC[C@@H]2O` , what is its reported IC50?
1.46

----------
molecular target: Estrogen receptor (Homo sapiens)
Sequence (P03372 whole entry): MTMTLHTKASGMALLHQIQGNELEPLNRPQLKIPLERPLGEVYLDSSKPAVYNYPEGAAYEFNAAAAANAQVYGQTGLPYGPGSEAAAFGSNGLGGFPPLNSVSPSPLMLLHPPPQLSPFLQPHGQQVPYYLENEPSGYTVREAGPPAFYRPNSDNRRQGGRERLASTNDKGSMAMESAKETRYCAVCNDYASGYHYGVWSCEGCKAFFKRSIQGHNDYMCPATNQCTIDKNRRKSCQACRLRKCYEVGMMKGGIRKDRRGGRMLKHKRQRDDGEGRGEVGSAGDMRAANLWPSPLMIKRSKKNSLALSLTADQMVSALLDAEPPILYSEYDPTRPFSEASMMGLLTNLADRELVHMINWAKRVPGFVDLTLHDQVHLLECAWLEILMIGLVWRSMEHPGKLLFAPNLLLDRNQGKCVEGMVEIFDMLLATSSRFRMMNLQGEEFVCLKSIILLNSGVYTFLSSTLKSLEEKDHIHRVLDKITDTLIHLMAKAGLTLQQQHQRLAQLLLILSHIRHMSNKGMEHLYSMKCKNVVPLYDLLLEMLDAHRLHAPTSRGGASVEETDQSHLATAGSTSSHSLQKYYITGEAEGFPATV
MEASURED_METRIC: EC50

C=C[C@]12CC[C@H](O)CC1=CC[C@H]1[C@@H]3CC[C@H](O)[C@@]3(C)CC[C@@H]12 : 980 nM
C=C[C@]12CCC(=O)C=C1CC[C@H]1[C@@H]3CC[C@H](O)[C@@]3(C)CC[C@@H]12 : > 1000 nM
C=CC[C@@H]1C2=CC[C@H]3[C@@H]4CC[C@H](O)[C@@]4(C)CC[C@@H]3[C@@]2(C=C)CC[C@@H]1O : > 1000 nM

Turning to the following molecule.
State its EC50 on Estrogen receptor (Homo sapiens): `C[C@]12CC[C@H]3[C@@H](CC=C4[C@H]5CC=C[C@]43CC[C@@H]5O)[C@@H]1CC[C@@H]2O`
4890 nM
